- System: affinity purified β2GPI-dependent antiphospholipid antibody
- METHOD: Competitive inhibition ELISA: recombinant β2GPI proteins compete for antibody binding to coated full length recombinant β2GPI
- Design: species or system human
- DETAILS: Ab 6203
MEASURE: Max (maximum inhibition observed at concentrations tested)

// lookup Max (maximum inhibition observed at concentrations tested) for ---45: recombinant β2GPI deletion mutant with domains 4, 5 (protein) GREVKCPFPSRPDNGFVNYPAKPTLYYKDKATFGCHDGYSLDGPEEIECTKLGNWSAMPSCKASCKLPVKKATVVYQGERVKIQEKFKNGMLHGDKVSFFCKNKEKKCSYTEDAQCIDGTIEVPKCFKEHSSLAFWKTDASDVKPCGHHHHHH
10%

// lookup Max (maximum inhibition observed at concentrations tested) for 12---: recombinant β2GPI deletion mutant with domains 1 and 2 (protein) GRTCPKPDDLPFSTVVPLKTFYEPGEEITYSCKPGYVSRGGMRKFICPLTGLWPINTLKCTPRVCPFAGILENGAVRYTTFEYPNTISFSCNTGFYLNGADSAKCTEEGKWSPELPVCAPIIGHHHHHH
20%

// lookup Max (maximum inhibition observed at concentrations tested) for recombinant β2GPI domain 5 with GlyHis6 (----5) (protein) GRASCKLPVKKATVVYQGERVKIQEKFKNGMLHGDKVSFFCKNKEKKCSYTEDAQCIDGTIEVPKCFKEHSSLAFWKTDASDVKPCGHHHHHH
5%
